growth reference
tested on: CCRF-CEM leukemia; assay: NCI-60 one-dose screen, 48 h (100 = growth as untreated, 0 = no growth, -100 = all killed); conditions: 10 µM unless noted
About 83,000 compounds went through this panel and 20% of them were active in at least one assay; those are over-represented in the sample as a whole.
Supply the numeric figure in %, leaving out any unit text.

[[record]]
compound = "COc1cccc(-c2nc3sccn3c2-c2ccnc(NCCCNS(=O)(=O)c3ccc(F)cc3)c2)c1"
readout_units = "%"
endpoint_result = 10.6

[[record]]
compound = "CNc1ccc(Br)c2c1C(=O)c1ccccc1C2=O"
readout_units = "%"
endpoint_result = 86.1

[[record]]
compound = "COc1ccc(C(=O)c2cc(OC)c3c(c2)OCO3)cc1O"
readout_units = "%"
endpoint_result = 16.5

[[record]]
compound = "CCO/C=N/C1=C(C#N)C(c2ccc(Cl)cc2)c2c(c3ccccc3n(C)c2=O)O1 (configuration not stated)"
readout_units = "%"
endpoint_result = 66.9

[[record]]
compound = "CC1(c2ccc(Cl)cc2)OC(=O)CC(=O)O1"
readout_units = "%"
endpoint_result = 100

[[record]]
compound = "Cc1cc(N/N=C/c2nc(-c3ccccc3)oc2C)c2cc(Br)ccc2n1"
readout_units = "%"
endpoint_result = 27.7

[[record]]
compound = "O=C(CCl)N(C1CCCCC1)C1CCCCC1"
readout_units = "%"
endpoint_result = 42.6

[[record]]
compound = "CN1CCN(Cc2ccc(NC(=O)c3cncc(C#Cc4cnc(N)c5cnccc45)c3)cc2C(F)(F)F)CC1"
readout_units = "%"
endpoint_result = 13


// fetch growth given entry "COc1cc(C(=O)/C=C/c2c(C)n([O-])c3ccc(C(F)(F)F)cc3[n+]2=O)cc(OC)c1OC"
36.6

// fetch growth given entry "C=C(C)[C@@H]1CC[C@]2(C(=O)O)CC[C@]3(C)[C@H](CC[C@@H]4[C@@]5(C)C[C@@H](CC#Cc6ccc(C(F)(F)F)cc6)[C@H](O)C(C)(C)[C@@H]5CC[C@]43C)[C@@H]12"
-2.71

// fetch growth given entry "O=C1CS/C(=N\Nc2cc(=O)[nH]c3ccccc23)N1c1ccccc1"
86.2

// fetch growth given entry "COc1ccc(-c2c(N)n[nH]c2-c2cc(OC)c3c(c2)OCCO3)cc1"
73.7

Where do the numbers come from? From PubChem BioAssay (NCI).
